Hello, the source for this data is patent US20240084039A1, in case you need it.

Target: pre-existing anti-drug antibodies (ADA) present in human sera
Assay: ELISA pre-existing ADA binding assay, confirmatory setup, test molecule coated, 20 human sera
# No of positive serum samples above 30% CCP (serum samples) per record follows
Readout: No of positive serum samples above 30% CCP (serum samples)

INSERT INTO results (binder, observed_value) VALUES
  ('PRO2921 (scFv) scFv: DIQMTQSPSSLSASVGDRVTITCQASESIYSSLAWYQQKPGKAPKLLIYLASTLASGVPSRFSGSGSGTDFTLTISSLQPEDFATYYCQSTDYTTSTHRNSFGTGTKVTVLGGGGGSGGGGSGGGGSGGGGSEVQLVESGGGLVQPGGSLRLSCAASGFSFSTTYYMCWVRQAPGKGLEWIGCTNTASSVRTYYATWAKGRFTISRDNSKNTVYLQMNSLRAEDTATYYCARDMGFADYALNLWGQGTQVTVSS', 11),
  ('PRO2984 (scFv) scFv: DIQMTQSPASLSASVGDRVTITCQASQSIGTYLAWYQQKPGKPPKLLIYRAFILASGVPSRFSGSGSGTDFTLTISSLQPEDFATYYCQSNFYSDSTTIGPNAFGTGTKVTVLGGGGGSGGGGSGGGGSGGGGSEVQLVESGGGSVQPGGSLRLSCAASGFSFNSDYWIYWVRQAPGKGLEWIASIYGGSSGNTQYASWAQGRFTISRDNSKNTVYLQMNSLRAEDTATYFCARGYVDYGGATDLWGQGTTVTVSS', 5),
  ('PRO2230 (scFv) scFv: DIQMTQSPASLSASVGDRVTITCQASQSIGTYLAWYQQKPGKPPKLLIYRAFILASGVPSRFSGSGSGTDFTLTISSLQPEDFATYYCQSNFYSDSTTIGPNAFGTGTKVTVLGGGGGSGGGGSGGGGSGGGGSEVQLVESGGGLVQPGGSLRLSCAASGFSFNSDYWIYWVRQAPGKGLEWIASIYGGSSGNTQYASWAQGRFTISRDNSKNTVYLQMNSLRAEDTAVYFCARGYVDYGGATDLWGQGTLVTVSS', 18);
